Each entry below carries its reported pIC50.
molecular target: plasma dipeptidylpeptidase IV (Homo sapiens); construct: 20 μL of plasma diluted 8-fold with saline in a well of a 96-well flat bottom plate; assay: In vitro dipeptidylpeptidase IV inhibition (H-Gly-Pro-AMC hydrolysis by plasma, fluorometry); details: plasma diluted 8-fold, H-Gly-Pro-AMC.HBr substrate, room temperature, 20 minutes
Sequence (P27487 39-766 limits assumed): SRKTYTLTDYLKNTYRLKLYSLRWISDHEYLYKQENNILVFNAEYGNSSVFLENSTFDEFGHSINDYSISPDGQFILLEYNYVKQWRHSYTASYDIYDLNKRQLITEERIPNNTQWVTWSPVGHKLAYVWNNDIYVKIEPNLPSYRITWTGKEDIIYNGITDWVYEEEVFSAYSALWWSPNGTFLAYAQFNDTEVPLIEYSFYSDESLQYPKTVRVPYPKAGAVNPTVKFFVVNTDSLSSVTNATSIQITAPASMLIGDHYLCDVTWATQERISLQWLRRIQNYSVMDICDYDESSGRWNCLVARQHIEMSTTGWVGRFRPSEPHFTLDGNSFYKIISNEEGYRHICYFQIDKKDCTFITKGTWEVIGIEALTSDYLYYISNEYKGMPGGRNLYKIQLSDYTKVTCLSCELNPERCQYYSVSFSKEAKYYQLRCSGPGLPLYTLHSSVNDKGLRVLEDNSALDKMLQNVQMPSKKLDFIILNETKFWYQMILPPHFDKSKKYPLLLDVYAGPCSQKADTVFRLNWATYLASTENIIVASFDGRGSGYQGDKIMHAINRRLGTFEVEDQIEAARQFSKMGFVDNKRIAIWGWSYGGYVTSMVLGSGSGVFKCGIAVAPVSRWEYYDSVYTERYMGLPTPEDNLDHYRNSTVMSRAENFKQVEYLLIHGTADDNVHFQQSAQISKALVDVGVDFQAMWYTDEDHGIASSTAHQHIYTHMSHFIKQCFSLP
Give only the number. pIC50 is defined as minus log10 of concentration in molar units.

compound_structure=N#C[C@@H]1C[C@H](F)CN1C(=O)CNC12CCC(CO)(CC1)CC2 measure_name=pIC50 reported=8.96
compound_structure=CC12CCC(NCC(=O)N3C[C@@H](F)C[C@H]3C#N)(CC1)CC2 measure_name=pIC50 reported=9.60

Inquiry: Identify pIC50 associated with the molecule N#C[C@@H]1C[C@H](F)CN1C(=O)CNC12CCC(C(=O)O)(CC1)CC2
Reply text: 8.51
